Values from paper PMC12299813

- Tested target: α-glucosidase
- Assay remarks: α-glucosidase inhibition assay (PNPG method)
- Setup conditions: acarbose positive control, three repetitions, read-out: IC50 ± SD of α-glucosidase inhibition, S. dulcificum components
// NB: equality with 4 mM counts as 0.0; only IC50 strictly below is 1.0

Solved entries:
{"columns": ["Molecule", "Class assignment"],
 "data": [
  ["COC(=O)c1cc(O)c(O)c(O)c1 [Methyl gallate]", 0.0],
  ["C=C(C)[C@@H]1CC[C@]2(C(=O)O)CC[C@]3(C)[C@H](CC[C@@H]4[C@@]5(C)CC[C@H](O)C(C)(C)[C@@H]5CC[C@]43C)[C@@H]12", 1.0],
  ["CC(C)=CCC/C(C)=C/CC/C(C)=C/CC/C=C(\\C)CC/C=C(\\C)CCC=C(C)C", 0.0],
  ["C[C@H]1[C@H](C)CC[C@]2(C(=O)O)CC[C@]3(C)C(=CC[C@@H]4[C@@]5(C)C[C@@H](O)[C@H](O)C(C)(C)[C@@H]5CC[C@]43C)[C@H]12", 1.0],
  ["CC[C@H](/C=C/[C@@H](C)[C@H]1CC[C@H]2[C@@H]3CC=C4C[C@@H](O)CC[C@]4(C)[C@H]3CC[C@]12C)C(C)C", 1.0]
]}

Now consider a different molecule.
Here's an entry: COc1cc(/C=C/CO)cc(OC)c1O[C@@H]1O[C@H](CO)[C@@H](O)[C@H](O)[C@H]1O . Is its IC50 below 4 mM?
0.0
